Values from ChEMBL document CHEMBL5608197

- Tested on: Plasmodium falciparum
- ASSAY COMMENT: Antiplasmodial activity against drug-resistant recrudescent Plasmodium falciparum Dd2-B2 in 2x10^5 bulk culture selection assessed as inhibition of parasite growth incubated for 72 hrs by flow cytometry
- Assay type: functional, organism-based
- SETUP CONDITIONS: Dd2-B2, 72 h
OUTCOME MEASURE: pEC50
// pEC50: -log10(molar conc.)

What value of measured pEC50 is listed for `Cc1nn(C(C)(C)C)c2nc(C3CC3)cc(C(=O)N3CCOc4ccncc43)c12` ?
7.55

====

- Test system: Plasmodium falciparum
- ASSAY COMMENT: Antiplasmodial activity against ring stage of Plasmodium falciparum 3D7 expressing ABCI3-HAreg assessed as inhibition of parasite proliferation incubated for 72 hrs in absence of ABCI3 inhibitor, GlcN by SYBR dye based flow cytometry
- Assay type: functional, organism-based
- SETUP CONDITIONS: 3D7, 72 h
# EC50 per record follows
Unit nM implied. Number only.

Cc1nn(C(C)(C)C)c2nc(C3CC3)cc(C(=O)N3CCOc4ccncc43)c12 : 2.7

What value of measured EC50 is listed for `Cc1nn(C(C)(C)C)c2nc(C3CC3)cc(C(=O)N3CCOc4ccccc43)c12` ?
47.6

====

- TEST SYSTEM: CYP3A4 (Homo sapiens, UniProt P08684)
- Sequence (P08684 whole entry): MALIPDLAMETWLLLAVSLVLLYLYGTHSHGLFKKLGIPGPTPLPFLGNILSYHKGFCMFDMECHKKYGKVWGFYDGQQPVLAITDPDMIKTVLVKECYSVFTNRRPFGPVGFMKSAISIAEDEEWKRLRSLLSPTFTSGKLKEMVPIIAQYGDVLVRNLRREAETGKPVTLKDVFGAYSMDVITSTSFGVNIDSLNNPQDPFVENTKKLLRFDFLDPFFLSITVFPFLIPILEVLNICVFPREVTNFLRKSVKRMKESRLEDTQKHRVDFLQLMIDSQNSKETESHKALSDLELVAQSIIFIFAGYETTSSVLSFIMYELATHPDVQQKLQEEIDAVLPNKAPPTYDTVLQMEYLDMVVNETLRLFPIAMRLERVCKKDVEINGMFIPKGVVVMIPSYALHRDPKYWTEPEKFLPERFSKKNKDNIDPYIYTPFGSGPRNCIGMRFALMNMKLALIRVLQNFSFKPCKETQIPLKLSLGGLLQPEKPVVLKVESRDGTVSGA
- ASSAY COMMENT: Inhibition of CYP3A4 (unknown origin) at 10 uM relative to control
- Format: ADME
OUTCOME MEASURE: inhibition at 10 µM (%)
Unit % implied. Number only.

What value of measured inhibition at 10 µM is listed for `Cc1nn(C(C)(C)C)c2nc(C3CC3)cc(C(=O)N3CCOc4ccncc43)c12` ?
90.5

====

- ASSAY COMMENT: Aqueous solubility of the compound in PBS buffer at pH 7.4 at 200 uM incubated for 2 hrs under shaking condition by miniaturized shake flask method
- Assay type: physicochemical
OUTCOME MEASURE: solubility thermodynamic at 2 h, 200 µM

COc1nn(C(C)(C)C)c2nc(C3CC3)cc(C(=O)N3CCOc4ccccc43)c12 : < 2.5 µM

What value of measured solubility thermodynamic at 2 h, 200 µM is listed for `Cc1nn(C(C)(C)C)c2nc(C3CC3)cc(C(=O)N3CCOc4ccccc43)c12` ?
< 2.5 µM

Okay, and `CC(C)(C)n1nc(Cl)c2c(C(=O)N3CCOc4ccccc43)cc(C3CC3)nc21` ?
< 2.5 µM

Okay, and `Cc1nn(C(C)(C)C)c2nc(C3CC3)cc(C(=O)N3CCOc4cc(F)ccc43)c12` ?
< 2.5 µM

====

- ASSAY COMMENT: Cytotoxicity against human HepG2 cells assessed as inhibition of cell growth incubated for 48 hrs by CellTiter-Glo luminescence assay
- Format: toxicity, cell-based
OUTCOME MEASURE: CC50 at 48 h

Worked cases, answers included:
Cc1nn(C(C)(C)C)c2nc(C3CC3)cc(C(=O)N3CCCCC3)c12 : > 40 µM
COc1ccccc1CNC(=O)c1cc(C2CC2)nc2c1c(C)nn2C(C)(C)C : > 40 µM

What value of measured CC50 at 48 h is listed for `Cc1nn(C(C)(C)C)c2nc(C3CC3)cc(C(=O)N3CCNc4ccccc43)c12` ?
> 40 µM
